- System: panel of 55 breast cancer cell lines
- assay_name: Cell growth inhibition assay (Cell Titer Glo, 72 h, 9 doses; GI50, TGI, LC50)
- Assay type: cell-based, human
- condition_details: cell line SUM225CWN; value is the negative log10 of mol/L
Labelling: GI50 reported below 5 becomes true; at or above becomes false.

// known answers, use as guide
>>> answer_label("O=C1C(Cl)=C(NCCN2CCOCC2)C(=O)c2ncccc21")
"false"
>>> answer_label("CC(C)[C@H](CO)Nc1nc(Nc2cccc(Cl)c2)c2ncn(C(C)C)c2n1")
"true"

Input CCNCCCCNCCCCNCCCCNCCCCNCC=CCNCCCCNCCCCNCCCCNCCCCNCC.Cl.Cl.Cl.Cl.Cl.Cl.Cl.Cl.Cl.Cl (stereo in doubt) ; condition: GI50 strictly below 5. Does it hold?
false

Further, for "COc1ccc(C2=N[C@@H](c3ccc(Cl)cc3)[C@@H](c3ccc(Cl)cc3)N2C(=O)N2CCNC(=O)C2)c(OC(C)C)c1" ?
true

Would you kindly repeat that for "O=c1[nH]c2ccccc2n1C1CCN(Cc2ccc(-c3nc4cc5[nH]cnc5cc4nc3-c3ccccc3)cc2)CC1" ?
false

And the next one, "COc1cccc(-c2cc(=O)c3ccccc3o2)c1N" ?
true

Try the compound "CC(/C=C/C(=O)NO)=C\[C@@H](C)C(=O)c1ccc(N(C)C)cc1"
true

Subsequent entry: "NS(=O)(=O)c1ccc(Nc2nc(OCC3CCCCC3)c3[nH]cnc3n2)cc1"
true

====

- System: panel of 55 breast cancer cell lines
- assay_name: Cell growth inhibition assay (Cell Titer Glo, 72 h, 9 doses; GI50, TGI, LC50)
- Type: cell-based, human
- condition_details: SKBR3 cell line; censored GI50 values; value is the negative log10 of mol/L
metric_name: GI50
// keep it numeric: no unit symbol after the value

>>> reported_measurement("COc1cc2ncnc(Nc3cccc(Cl)c3)c2cc1OC")
4.92
>>> reported_measurement("C=CCNC1=C2C[C@@H](C)C[C@H](OC)[C@H](O)[C@@H](C)/C=C(\\C)[C@H](OC(N)=O)[C@@H](OC)/C=C\\C=C(/C)C(=O)NC(=CC1=O)C2=O")
7.50
>>> reported_measurement("CCNCCCCNCCCCNCCCCNCCCCNCC=CCNCCCCNCCCCNCCCCNCCCCNCC.Cl.Cl.Cl.Cl.Cl.Cl.Cl.Cl.Cl.Cl (stereo in doubt)")
5.30
>>> reported_measurement("Cc1cc(C(C)Nc2ccccc2)c2nc(N3CCOCC3)cc(=O)n2c1 (stereo not shown)")
5.33
>>> reported_measurement("C[C@@H](Oc1cc(-n2cnc3ccc(CN4CCN(C)CC4)cc32)sc1C(N)=O)c1ccccc1C(F)(F)F [GSK461364A]")
7.78
>>> reported_measurement("CCn1cc(-c2ccnc3[nH]c(-c4cccc(CN(C)C)c4)cc23)c(-c2ccc(NC(=O)N(C)C)cc2)n1")
5.29

Next compound, please.
Form field: reported GI50 of "O=c1[nH]c(=O)n([C@H]2C[C@H](O)[C@@H](CO)O2)cc1F"
3.66

====

- Tested on: panel of 55 breast cancer cell lines
- assay_name: Cell growth inhibition assay (Cell Titer Glo, 72 h, 9 doses; GI50, TGI, LC50)
- Type: cell-based, human
- condition_details: cell line HCC1954; value is the negative log10 of mol/L
// returns NO unless GI50 is strictly below 5, in which case YES

Consider the following illustrative entries.
>>> answer_label("Cc1cc(C(=O)N2CCN(c3cccc(Cl)c3)CC2)n(-c2ccccc2)n1 [XRP44X]")
"NO"
>>> answer_label("COc1cc2ncnc(Nc3cccc(Cl)c3)c2cc1OC")
"NO"
>>> answer_label("O=S(=O)(CC1CS1)c1ccc(Oc2ccccc2)cc1 (centres unmarked)")
"YES"

is_below(GI50, 5) for "O=C1NC(=O)/C(=C/c2ccc(-c3ccc(F)cc3O)o2)S1" ?
NO

Try "CC(C)Oc1ccc(C(=O)N[C@H](CNC(=O)CN(C)C)Cc2ccc(-c3cn4cccc([C@H](C)O)c4n3)cc2)cc1Cl" next.
NO

Another: CCNCCCCNCCCCNCCCCNCCCCNCC=CCNCCCCNCCCCNCCCCNCCCCNCC.Cl.Cl.Cl.Cl.Cl.Cl.Cl.Cl.Cl.Cl (stereo in doubt)
NO

And for CC(=O)Nc1cccc(-n2c(=O)n(C3CC3)c(=O)c3c(Nc4ccc(I)cc4F)n(C)c(=O)c(C)c32)c1.C[S+](C)[O-] [GSK1120212B] ?
NO

Then this molecule: "Cc1cc(Nc2cc(N3CCN(C)CC3)nc(Sc3ccc(NC(=O)C4CC4)cc3)n2)n[nH]1"
YES

====

- System: panel of 55 breast cancer cell lines
- assay_name: Cell growth inhibition assay (Cell Titer Glo, 72 h, 9 doses; GI50, TGI, LC50)
- Assay type: cell-based, human
- condition_details: cell line HCC1806; value is the negative log10 of mol/L
metric_name: GI50
API doc: respond with a numeric literal and nothing else, no unit.

>>> reported_measurement("CC(=O)Nc1cccc(-n2c(=O)n(C3CC3)c(=O)c3c(Nc4ccc(I)cc4F)n(C)c(=O)c(C)c32)c1.C[S+](C)[O-] [GSK1120212B]")
5.08
>>> reported_measurement("O=C1NC(=O)/C(=C/c2ccc(-c3ccc(F)cc3O)o2)S1 [AS-252424]")
5.15
>>> reported_measurement("NC(=O)Nc1sc(-c2ccc(F)cc2)cc1C(N)=O [TPCA-1]")
5.34
>>> reported_measurement("N#Cc1c(NC(=O)c2cccc3ccccc23)sc2c1CCCC2 [TCS JNK 5a]")
3.92
>>> reported_measurement("O=c1[nH]c(=O)n([C@H]2C[C@H](O)[C@@H](CO)O2)cc1F [5-FdUR]")
4.59
>>> reported_measurement("CC(C)(C)c1cc(C=C(C#N)C#N)cc(Br)c1O [AG1024]")
4.48
>>> reported_measurement("COc1ccc(C2=N[C@@H](c3ccc(Cl)cc3)[C@@H](c3ccc(Cl)cc3)N2C(=O)N2CCNC(=O)C2)c(OC(C)C)c1 [Nutlin 3a]")
4.29
>>> reported_measurement("COc1cccc(-c2cc(=O)c3ccccc3o2)c1N [PD 98059]")
4.30

Recorded GI50 for CC(/C=C/C(=O)NO)=C\[C@@H](C)C(=O)c1ccc(N(C)C)cc1 [Trichostatin A] , please?
4.97

Another compound: N.N.O=C([O-])C1(C(=O)[O-])CCC1.[Pt+2] [Carboplatin]
4.80

Same for O=c1[nH]c2ccccc2n1C1CCN(Cc2ccc(-c3nc4cc5[nH]cnc5cc4nc3-c3ccccc3)cc2)CC1 [Sigma AKT1-2 inhibitor]
5.05

Follow-up item: NS(=O)(=O)c1ccc(Nc2nc(OCC3CCCCC3)c3[nH]cnc3n2)cc1 [NU6102]
4.64

====

- System: panel of 55 breast cancer cell lines
- assay_name: Cell growth inhibition assay (Cell Titer Glo, 72 h, 9 doses; GI50, TGI, LC50)
- Type: cell-based, human
- condition_details: Homo sapiens, BT-483, BT483 cell line; censored GI50 values; read-out: GI50 (converted)
Counter-ions that a name gives are not always drawn.
Below, each entry is listed with its recorded GI50.
The reply should be a number in µM, with the unit left off.

// returns reported GI50 for input CCN(CC)CCNC(=O)c1c(C)[nH]c(/C=C2\C(=O)Nc3ccc(F)cc32)c1C [Sunitinib Malate]
18.6

// same read-out, input: CCCCCN(C)CCC(O)(P(=O)(O)O)P(=O)(O)O [Ibandronate sodium salt]
57.5

Now try C/C(=C\c1csc(C)n1)[C@@H]1C[C@@H]2O[C@]2(C)CCC[C@H](C)[C@H](O)[C@@H](C)C(=O)C(C)(C)[C@@H](O)CC(=O)N1 [Ixabepilone] .
5.37

Also "COC1=C2C[C@@H](C)C[C@H](OC)[C@H](O)[C@@H](C)/C=C(\C)[C@H](OC(N)=O)[C@@H](OC)/C=C\C=C(/C)C(=O)NC(=CC1=O)C2=O" ?
0.145

Can you check "CC/C(=C(\c1ccccc1)c1ccc(OCCN(C)C)cc1)c1ccccc1" next?
24

Another molecule: "CCNCCCNC/C=C\CNCCCNCC"
589

Okay, and "CC(=O)O[C@H]1C(=O)[C@@]2(C)[C@H]([C@H](OC(=O)c3ccccc3)[C@]3(O)C[C@H](OC(=O)[C@H](O)[C@@H](NC(=O)c4ccccc4)c4ccccc4)C(C)=C1C3(C)C)[C@]1(OC(C)=O)CO[C@@H]1C[C@@H]2O" ?
0.0347

Also "CNC(=O)c1cc(Oc2ccc(NC(=O)Nc3ccc(Cl)c(C(F)(F)F)c3)cc2)ccn1" ?
11.7

Try this molecule next: "CO[C@H]1C[C@@H]2CC[C@@H](C)[C@@](O)(O2)C(=O)C(=O)N2CCCC[C@H]2C(=O)O[C@H]([C@H](C)C[C@@H]2CC[C@@H](O)[C@H](OC)C2)CC(=O)[C@H](C)/C=C(\C)[C@@H](O)[C@@H](OC)C(=O)[C@H](C)C[C@H](C)/C=C/C=C/C=C/1C"
0.00166

COc1cc([C@@H]2c3cc4c(cc3[C@@H](O[C@@H]3O[C@@H]5CO[C@@H](C)O[C@H]5[C@H](O)[C@H]3O)[C@H]3COC(=O)[C@H]23)OCO4)cc(OC)c1O [Etoposide] , same question.
4.27
